- Tested on: rabbit anti-GM1 antibodies (AbGM1)
- Type: binding
- measurement setup: peptide at its IC50 AbGM1-1; antibody lot # 104H, dilution 1:500
Where a SMILES comes first, the peptide text is derived from it.
Field: Inhibition percent at IC50 AbGM1-1: AbeGM1-4. Provide a value for each of the molecules that follow.
Give bare numbers, in %.

CC[C@H](C)[C@H](NC(=O)[C@@H](N)CCC(N)=O)C(=O)N[C@@H](CC(N)=O)C(=O)N[C@H](C(=O)N[C@@H](C)C(=O)N[C@@H](CCCCN)C(=O)N[C@@H](Cc1c[nH]c2ccccc12)C(=O)N[C@@H](Cc1c[nH]c2ccccc12)C(=O)N[C@@H](CCCCN)C(=O)N[C@H](C(=O)N[C@@H](Cc1c[nH]cn1)C(=O)N[C@@H](Cc1ccccc1)C(=O)O)[C@@H](C)O)[C@@H](C)O [PGM1-5, QINTAKWWKTHF] (H-QINTAKWWKTHF-OH) :: 0

### Prompt Tell me Inhibition percent at IC50 AbGM1-1: AbeGM1-4 reported for CC(C)C[C@H](NC(=O)[C@H](CC(N)=O)NC(=O)[C@@H]1CCCN1C(=O)[C@H](Cc1ccccc1)NC(=O)[C@H](Cc1c[nH]c2ccccc12)NC(=O)[C@@H](NC(=O)[C@H](CCCCN)NC(=O)[C@H](Cc1c[nH]c2ccccc12)NC(=O)[C@H](CO)NC(=O)[C@@H](N)C(C)C)[C@@H](C)O)C(=O)N[C@@H](C)C(=O)N[C@H](C(=O)O)C(C)C [PGM1-1, VSWKTWFPNLAV] (H-VSWKTWFPNLAV-OH; N-terminus and C-terminus assumed)
### Response 72.1

// data source = patent US8877161B2
